Below, each of the binders is paired with its reported Wnt Reporter EC50 value.
Target: T1, β-catenin (UniProt P35222 134-665, limits assumed, biotinylated in the SPR and plate assays)
T1 sequence (looked up): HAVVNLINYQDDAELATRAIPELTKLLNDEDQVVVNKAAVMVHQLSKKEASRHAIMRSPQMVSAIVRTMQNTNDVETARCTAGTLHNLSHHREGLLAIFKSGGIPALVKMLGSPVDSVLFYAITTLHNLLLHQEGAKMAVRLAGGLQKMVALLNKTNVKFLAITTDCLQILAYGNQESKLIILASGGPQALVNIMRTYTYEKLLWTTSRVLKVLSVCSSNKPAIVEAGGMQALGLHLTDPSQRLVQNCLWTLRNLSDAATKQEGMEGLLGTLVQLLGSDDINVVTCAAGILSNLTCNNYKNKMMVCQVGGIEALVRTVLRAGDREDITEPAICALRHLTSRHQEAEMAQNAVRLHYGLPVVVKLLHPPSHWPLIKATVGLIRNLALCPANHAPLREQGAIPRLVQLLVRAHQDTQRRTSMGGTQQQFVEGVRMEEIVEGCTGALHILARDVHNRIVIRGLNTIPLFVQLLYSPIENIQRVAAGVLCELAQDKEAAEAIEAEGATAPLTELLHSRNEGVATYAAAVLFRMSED
Assay: cell-based or functional assay
Bridges are numbered along the chain shown (N, C = ends). Where no end group is shown, it is not given here. [ ]: non-standard residue; d: D form.

In the examples that follow, each entry is paired with its recorded Wnt Reporter EC50.
1. H-MWILICFWG-OH [SEQ ID NO: 116]
≤ 7.5 µM
2. Ac-WFLICFWG-OH [SEQ ID NO: 194]
≤ 7.5 µM
3. H-MGRMWFLISFWG-OH [SEQ ID NO: 67]
≤ 7.5 µM
4. [Ado]MWFLICAWD-OH (lactam N-10) [SEQ ID NO: 193]
≤ 7.5 µM
5. MTRMWFLISFW-NH2 [SEQ ID NO: 73]
> 30 µM

# input binder: KWFLICAWD (cyclo-H2N-K(G*)WFLICAWD*-COOH) [SEQ ID NO: 207] ; wanted: its Wnt Reporter EC50
≤ 7.5 µM

Also need Ac-PQKILDEHVQRVMK-NH2 (bridge 3-7; also: K3* and E7* marked (linkage not given here)) [SEQ ID NO: 485] , thanks.
> 30 µM
